- measurement-notes: protein stability index of a GFP-peptide fusion (GPS, HEK-293T) (PSI 1-6); higher = more stable;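 also: 24-mer peptide tiles fused after GFP, lentivirally expressed, FACS-sorted into six equal bins by GFP/DsRed ratio, decoded by Illumina sequencing, PSI is the read-weighted mean bin number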
- particulars: treatment: DMSO; c terminus: a fixed tail appended
This listing pairs sequences with measured protein stability index.
Response field accepts a number only; no unit should be typed.

Answered cases to consult:
# entry-sequence, experimental-value
rows = [
    ("YYIDDVFHALVREIRRKEKEAVLA [RIT1]", 2.27),
    ("VRKHPAVKEKGSTLDLSDLEAEKL [SCD]", 5.12),
    ("MPAAGLAVQLRHAWNPEDRSLNVF [SPSB4]", 2.75),
    ("EVSHPFLIRLFWTWHDERFLYMLM [PRKX]", 2.24),
    ("GGEFQCGLEAASVYSDHTNTNNLT [RNF180]", 2.42),
]

Fill blank: measured protein stability index of the sequence NQMKERQGLFFDMEAYLPKKNGLY [TMEM120A] is ____.
2.65

Fill blank: measured protein stability index of the sequence DESLTDLEAQPYEAVFLRAVKLYN [P3H4] is ____.
2.58

* * *

- measurement-notes: protein stability index of a GFP-peptide fusion (GPS, HEK-293T) (PSI 1-6); higher = more stable
- particulars: treatment: DMSO; c terminus: a fixed tail appended
measured-metric: protein stability index
Response field accepts a number only; no unit should be typed.

Answered cases to consult:
# entry-sequence, protein stability index
measured = [
    ("NTEIEKLGRSIVSSPQGKSGPEAA [PKD2L1]", 5.35),
    ("AYRGNCKDVSRCVAERKYTQEQAR [SMOC2]", 3.06),
    ("PVAAATAAEGEGSPPAVAAVAGPP [ANKRD17]", 5.54),
    ("MMDSRTSQQLQLIDEQDSYIQSRA [STX5]", 4.77),
    ("MADWARAQSPGAVEEILDRENKRM [BET1L]", 4.71),
]

Fill blank: measured protein stability index of the sequence NIGINGNHSLETCETTLFALRMAT [PTGFR] is ____.
2.34

Fill blank: measured protein stability index of the sequence VLEQEETAAASRERQEEQSAAIHI [EPB41L3] is ____.
5.33

* * *

This listing pairs sequences with measured protein stability index.
- measurement-notes: protein stability index of a GFP-peptide fusion (GPS, HEK-293T) (PSI 1-6); higher = more stable
- particulars: treatment: DMSO; c terminus: a fixed tail appended
Response field accepts a number only; no unit should be typed.

# entry-sequence, experimental-value
records = [
    ("IISGVSKVPIAQDELALSLGYAAS [C2CD2L]", 2.58),
]

Fill blank: measured protein stability index of the sequence AALNALQPPEFRNESSLASTLKTL [VMA21] is ____.
3.44

Fill blank: measured protein stability index of the sequence IKSSLKDEYQYSFWDLFRSKDNMR [SLC2A12] is ____.
2.39

Fill blank: measured protein stability index of the sequence LGRELMLQLSEFLCEEFRNRNQRI [CPN1] is ____.
2.31

Fill blank: measured protein stability index of the sequence NEKEKALQAQVQYQQQHEQQKKDL [SASS6] is ____.
5.66

Fill blank: measured protein stability index of the sequence TENRYCVQLSQIQGLIGSVEEQLA [KRT17] is ____.
3.1

Fill blank: measured protein stability index of the sequence QSPGQPVQGGSEAWGPGTLAAAPE [TEX19] is ____.
5.08
